testedTarget: SARS-CoV-2 RBD-hFc (SARS-CoV-2)
assayInfo: Luminex beads

{"binder": "mAb10971 (antibody, V domains shown) VH: EVQLVESGGGLIQPGGSLRLSCAASGVTVSSNYMSWVRQAPGKGLEWVSVIYSGGSTFYSDSVKGRFSISRDNSKNTLYLQMNSLRAEDTAVYYCARDLYYYGMDVWGQGTTVTVSS VL: DIQLTQSPSFLSASVGDRVTITCRASQGISTYLAWYQQKPGKAPKLLIYAASTLQSGVPSRFSGSGSGTEFTLTISSLQPEDFATYYCQQLDSYPGLTFGGGTKVEIKR", "binding result": "binds"}
{"binder": "mAb10914 (antibody, V domains shown) VH: EVQLVESGGGLVQPGGSLRLSCAASGLIVSRNYMIWVRQAPGKGLEWVSVIYSGGSTFYADSVKGRFTISRHNSKNTLYLQMNSLRAEDTAVYYCARDLGTGGMDVWGQGTTVTVSS VL: DIQLTQSPSFLSASVGDRVTITCWASQGISSYLAWYQQKPGKAPKLLIYAASTLQSGVPSRFSGSGSGTEFTLTISSLQPEDFATYYCQQLNSYPLTFGGGTKVEIKR", "binding result": "binds"}
{"binder": "mAb11006 (antibody, V domains shown) VH: EVQLVESGGGLVQPGGSLRLSCAASGFIVSRNYMSWVRQAPGKGLEWVSVIYSGGSTFYADSVKGRFTISRHNSKNTLYLQMNSLKAEDTAVYYCARELRGYFDYWGQGTLVTVSS VL: DIQLTQSPSFLSASVGDRVTITCWASQGISSYLAWYQQKPGKAPKLLIYAASTLQSGVPSRFSGSGSGTEFTLTISSLQPEDFATYYCQLLNSYPYTFGQGTKLEIK", "binding result": "binds"}
